- Tested on: SW480
- Measurement notes: Cytotoxicity against human SW480 cells after 48 hrs by MTT assay
- Format: functional, cell-based
- Measurement setup: SW480, 48 h

Molecule	System tested	Inequality operator	IC50 [µM]
CC(C)(O)C(=O)c1cc([C@@H]2CC[C@]3(C)C4=CCC5C(C)(C)[C@H](O)CC[C@]5(C)[C@H]4CC[C@@]23C)c[nH]1 (stereo partly drawn) [LAXIRACEMOSIN D]	SW480	>	20
CC(C)C(=O)c1cc([C@@H]2CC[C@]3(C)C4=CCC5C(C)(C)[C@H](O)CC[C@]5(C)[C@H]4CC[C@@]23C)c[nH]1 (stereo partly drawn) [LAXIRACEMOSIN A]	SW480	=	7.2
CC(C)C(=O)c1cc([C@@H]2CC[C@]3(C)C4=CCC5C(C)(C)C(=O)CC[C@]5(C)[C@H]4CC[C@@]23C)c[nH]1 (stereo partly drawn) [LAXIRACEMOSIN B]	SW480	>	20
C=C(C)C(=O)c1cc([C@@H]2CC[C@]3(C)C4=CCC5C(C)(C)[C@H](O)CC[C@]5(C)[C@H]4CC[C@@]23C)c[nH]1 (stereo partly drawn) [LAXIRACEMOSIN E]	SW480	=	3.7
CC1(C)C2CC=C3[C@H](CC[C@@]4(C)[C@H](c5c[nH]c(C=O)c5)CC[C@]34C)[C@@]2(C)CC[C@H]1O (stereo partly drawn) [LAXIRACEMOSIN F]	SW480	>	20

Each recorded value in this set is attributed to ChEMBL document CHEMBL1212892.
